These entries and their values trace back to ChEMBL document CHEMBL5728748.

Experiment: TarO Biochemical Enzymatic Assay: The TarO biochemical enzymatic assay is a liquid chromatography-mass spectroscopy (LC-MS) based end point assay that measures C55-P-P-GlcNAc (LIPID III) production. The TarO biochemical enzymatic assay was performed in a 384-well microtiter plate (Labcyte) with a reaction volume of 20 μl. The reaction mix contained 0.1 μgs/μl of TarO membrane preparation derived from MRSA COL (lysostaphin/lysozyme treated, centrifuged at 40K rpm, and re-suspended in 50 mM Tris pH 7.5, 10 mM MgCl2), 1500 μM UDP-GlcNAc, x 75 μM C55-P substrates in 83 mM Tris pH 8.0, 6.7 mM MgCl2, 6 mM CHAPS, and 8.3% DMSO buffer. The enzyme reactions were quenched by extraction in 40 μl of 1-pentanol containing 0.04 μM […] C55-PP-GlcNAc, which was used as an internal standard. A 10 μl volume of the quenched reaction mixture (pH≈3) from each well was injected onto a reversed-phase column (C4, 5 m, 2.1×50 mm, Thermo Scientific Biobacis-4) and eluted using a NH4Ac/H2O/MeOH gradient (solvent A: 10 mM NH4Ac in water, pH 5.6; solvent B: NH4Ac (1 M)-Isopropanol (1:90, v/v, pH 5.6). The HPLC conditions were as follows: 15% solvent B for 15 seconds followed by a gradient to 90% solvent B in 90 seconds; then solvent B was kept at 95% for 10 seconds followed by a gradient to 8% solvent B in 0.1 minute. The column was then equilibrated at 15% B for 1 minute before the next injection. The flow rate was kept constant at 600 μl/minute. Mass spectrometric detection was carried out in the negative-ion mode using selected reaction monitoring (SRM). Typical mass spectrometric conditions were as follows: heated capillary temperature, 210° C.; spray voltage, 2500 V; desolvation gas (N2), 40 l/h; auxiliary gas (N2), 35 l/h. Selected ion current (SIC) chromatograms of C55-PP-GlcNAc and internal standard 15C C55-PP-GlcNAc were plotted and integrated using LCQuan incorporated in Xcalibur software (ThermoFinnigan). The linearity of C55-PP-GlcNAc concentration versus mass spectrometric signal (AC55-PP-GlcNAc/A15C-C55-PP-GlcNAc) was determined with purified C55-PP-GlcNAc. The IC50 values were calculated using the nonlinear regression analysis (sigmoidal dose response fit allowing for a variable slope) of percent inhibition data with minimum and maximum values set to 0 and 100 percent.
In this section we review reported IC50 values for a set of molecules.
Form entry: value (nM) — number only.

{"molecule": "C[C@H]1CN(C(=O)NCc2cncc3ccccc23)C(=O)O[C@@H]1c1cc(C(F)(F)F)cc(C(F)(F)F)c1 (single isomer, unassigned)", "endpoint_label": "IC50", "measure_unit": "nM", "measurement": 30}
{"molecule": "C[C@H]1[C@@H](c2cc(C(F)(F)F)cc(C(F)(F)F)c2)OC(=O)N1C(=O)NCc1cncc2cccnc12", "endpoint_label": "IC50", "measure_unit": "nM", "measurement": 10}

Query: Reported IC50 for C[C@H]1[C@@H](c2cccc(OC(F)(F)F)c2)OC(=O)N1C(=O)CCc1cccc2ccccc12 : what is it?
Response: 40
